target-desc: His6-AspH315–758 (human aspartate/asparagine-β-hydroxylase, AspH) (Homo sapiens)
Construct: N-Terminally His6-tagged human AspH315–758 (His6-AspH315–758) was produced in E. coli BL21 (DE3) cells; made in house; host or cells: E. coli BL21 (DE3), pET-28a(+) vector
Sequence (Q12797 315-758): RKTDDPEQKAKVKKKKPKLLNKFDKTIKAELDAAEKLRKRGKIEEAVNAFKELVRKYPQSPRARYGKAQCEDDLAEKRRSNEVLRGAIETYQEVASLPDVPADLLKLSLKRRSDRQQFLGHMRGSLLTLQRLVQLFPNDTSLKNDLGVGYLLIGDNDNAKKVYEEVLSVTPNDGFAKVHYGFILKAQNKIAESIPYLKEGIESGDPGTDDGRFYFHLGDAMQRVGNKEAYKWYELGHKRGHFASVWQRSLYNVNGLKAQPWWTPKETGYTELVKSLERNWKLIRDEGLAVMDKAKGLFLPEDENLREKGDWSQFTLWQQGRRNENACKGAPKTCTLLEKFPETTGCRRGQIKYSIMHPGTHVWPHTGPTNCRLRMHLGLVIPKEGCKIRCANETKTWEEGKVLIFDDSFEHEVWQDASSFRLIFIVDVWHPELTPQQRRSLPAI
assay-name: SPE-MS AspH inhibition assay (LOPAC screen at fixed 20 μM and IC50 dose-response), hydroxylation of cyclic peptide hFX-CP101–119
Assay type: biochemical
measurement-parameters: LOPAC compound at fixed 20 uM; substrate conversion, plate 1
Structures can show the parent of a compound that is named as a salt.
# Plate 1 (% conversion) >= 40% gives MET, anything below gives NOT MET

# example entries with known answers
Nc1ccc(CCNc2ncnc3c2ncn3[C@@H]2O[C@H](CO)[C@@H](O)[C@H]2O)cc1    NOT MET
CC(=O)Nc1nnc(S(N)(=O)=O)s1 [Acetazolamide]    NOT MET
COc1ccc2c(c1)c(CC(=O)O)c(C)n2Cc1ccc(Cl)cc1    NOT MET
CN1CCC(=C2c3ccccc3C=Cc3ccccc32)CC1 [Cyproheptadine hydrochloride]    MET
COC(=O)C1=C(C)NC(C)=C([N+](=O)[O-])C1c1ccccc1C(F)(F)F (racemic) [(±)-Bay K 8644]    MET

Enquiry: Could you please find out whether CC(C)(C=O)Cc1cc(C(C)(C)C)c(O)c(C(C)(C)C)c1 has Plate 1 (% conversion) that meets 40% or exceeds it?
Return: NOT MET

Enquiry: Could you please find out whether NC(Cc1ccc(Cl)cc1)C(=O)O (racemic) [(±)-p-Chlorophenylalanine] has Plate 1 (% conversion) that meets 40% or exceeds it?
Return: NOT MET

Enquiry: Could you please find out whether COc1cccc(OC)c1OCCNCC1CSc2ccccc2O1 (centres unmarked) [Benoxathian hydrochloride] has Plate 1 (% conversion) that meets 40% or exceeds it?
Return: MET

Enquiry: Could you please find out whether C[C@@H](O)[C@H]1C(=O)N2C(C(=O)O)=C(SCCN=CN)C[C@H]12 [Imipenem monohydrate] has Plate 1 (% conversion) that meets 40% or exceeds it?
Return: NOT MET
